# Subject Of Test: MCL1 protein (Homo sapiens (Human), UniProt Q07820)
# Sequence (Q07820 whole entry): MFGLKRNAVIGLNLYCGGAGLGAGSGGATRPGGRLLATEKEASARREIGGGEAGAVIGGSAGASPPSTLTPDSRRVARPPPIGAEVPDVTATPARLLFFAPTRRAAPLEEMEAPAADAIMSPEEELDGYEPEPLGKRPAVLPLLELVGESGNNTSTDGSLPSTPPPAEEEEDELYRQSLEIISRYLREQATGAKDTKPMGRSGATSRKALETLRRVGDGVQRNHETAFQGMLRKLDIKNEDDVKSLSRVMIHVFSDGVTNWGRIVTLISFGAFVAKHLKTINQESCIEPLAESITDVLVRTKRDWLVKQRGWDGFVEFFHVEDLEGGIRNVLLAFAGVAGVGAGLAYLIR
# Procedure Details: PIxEL: protein-protein interaction in permeabilized cells by ELISA (Assay 5)
# Format: cell-based
# Applied Conditions: permeabilized RKO cells, biotin-BIM BH3 peptide, median
Give measured IC50 for each item. Keep answers brief.
Field: numeric (nM). Do not append units.

Data point: CCc1c2c(nn1C)COCCCCn1c(C(=O)O)c(CCCOc3cccc4ccccc34)c3ccc(F)c-2c31 (single isomer, unassigned; enantiomer 1) ; IC50 = 2060

Data point: CCc1c2c(nn1C)COCCCCn1c(C(=O)O)c(CCCOc3cccc4cc(F)ccc34)c3ccc(F)c-2c31 (single isomer, unassigned; enantiomer 2) [Example 23] ; IC50 = 15100

Data point: Cc1c2c(nn1C)COCCCCn1c(C(=O)O)c(CCCOc3ccc(F)c4ccccc34)c3ccc(F)c-2c31 (racemic) [Example 15] ; IC50 = 4160

Data point: CCc1c2c(nn1C)COCCCCn1c(C(=O)O)c(CCCOc3cccc4cc(F)ccc34)c3ccc(F)c-2c31 (single isomer, unassigned; enantiomer 1) [Example 22] ; IC50 = 1340

Data point: CCc1nn(C)c2c1-c1c(F)ccc3c(CCCOc4ccc(F)c5ccccc45)c(C(=O)O)n(c13)CCCCOC2 (single isomer, unassigned; enantiomer 1) ; IC50 = 8910

Data point: CCc1c2c(nn1C)COCCCCn1c(C(=O)O)c(CCCOc3cccc4cc(F)ccc34)c3ccc(F)c-2c31 (single isomer, unassigned; enantiomer 1) [Example 24] ; IC50 = 424

Data point: Cc1c2c(nn1C)COCCCCn1c(C(=O)O)c(CCCOc3cccc4ccccc34)c3ccc(F)c-2c31 (single isomer, unassigned; enantiomer 1) ; IC50 = 1400

Data point: CCc1nn(C)c2c1-c1c(F)ccc3c(CCCOc4cccc5ccccc45)c(C(=O)O)n(c13)CCCCOC2 (racemic) ; IC50 = 7350

Data point: Cc1c2c(nn1C)COCCCCn1c(C(=O)O)c(CCCOc3ccc(F)c4ccccc34)c3ccc(F)c-2c31 (single isomer, unassigned; enantiomer 1) [Example 16] ; IC50 = 32300

Data point: CCc1nn(C)c2c1-c1c(F)ccc3c(CCCOc4cccc5cc(F)ccc45)c(C(=O)O)n(c13)CCCCOC2 (single isomer, unassigned; enantiomer 1) ; IC50 = 2380

Data point: CCc1c2c(nn1C)COCCCCn1c(C(=O)O)c(CCCOc3ccc(F)c4ccccc34)c3ccc(F)c-2c31 (single isomer, unassigned; enantiomer 1) ; IC50 = 2430

Data point: Cc1c2c(nn1C)COCCCCn1c(C(=O)O)c(CCCOc3cccc4cc(F)ccc34)c3ccc(F)c-2c31 (single isomer, unassigned; enantiomer 1) ; IC50 = 872
